Target: D(2) dopamine receptor (Homo sapiens, UniProt P14416)
Sequence (P14416 whole entry): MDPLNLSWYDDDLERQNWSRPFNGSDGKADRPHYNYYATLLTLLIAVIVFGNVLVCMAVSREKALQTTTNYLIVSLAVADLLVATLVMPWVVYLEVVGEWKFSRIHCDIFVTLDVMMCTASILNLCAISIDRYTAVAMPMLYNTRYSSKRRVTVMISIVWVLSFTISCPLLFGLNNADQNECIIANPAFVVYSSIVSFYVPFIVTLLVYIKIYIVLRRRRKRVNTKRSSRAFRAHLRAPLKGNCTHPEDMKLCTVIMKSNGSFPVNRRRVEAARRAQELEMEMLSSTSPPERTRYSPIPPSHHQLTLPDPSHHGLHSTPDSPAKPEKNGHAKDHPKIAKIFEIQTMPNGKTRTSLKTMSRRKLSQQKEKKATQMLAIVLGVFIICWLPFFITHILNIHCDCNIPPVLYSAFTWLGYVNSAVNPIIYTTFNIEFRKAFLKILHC
Test: In vitro binding affinity at human cloned dopamine receptor D2 (short) stably expressed in CHO cells by [3H]spiperone displacement.
Assay type: cell-based
recorded metric: pKi
Remember the convention: pKi equals -log10 of concentration in molar.

Cc1nn2c(N3CCN(Cc4ccccc4)CC3)cccc2c1CN1CCN(c2ccc(Cl)cc2)CC1: 6.92

Look up pKi for this compound: `Clc1ccc(N2CCN(Cc3cnn4c(N5CCN(Cc6ccccc6)CC5)cccc34)CC2)cc1`
6.40

Look up pKi for this compound: `OCc1ccc2c(CN3CCN(c4ccc(Cl)cc4)CC3)cnn2c1`
4.66

----------
Biological target: D(2) dopamine receptor (Homo sapiens, UniProt P14416)
Assay: In vitro binding affinity at human cloned dopamine receptor D2 (short) stably expressed in CHO cells by [3H]spiperone displacement.
Format: cell-based
In plain terms, low Ki, meaning strictly below 20 µM, gives condition met, and everything else gives condition not met.

N#Cc1cccc2c(CN3CCN(c4ccc(Cl)cc4)CC3)cnn12: condition not met
Cc1nn2c(-c3ccc(F)cc3)cccc2c1CN1CCN(c2ccc(Cl)cc2)CC1: condition met
C#Cc1cccc2c(CN3CCN(c4ccc(Cl)cc4)CC3)c(C)nn12: condition not met
C[Si](C)(C)c1cccc2c(CN3CCN(c4ccc(Cl)cc4)CC3)cnn12: condition met

Shift focus to the following entry.
Does the reported Ki of the following compound sit strictly below 20 µM? `Cc1nn2c(C#N)cccc2c1CN1CCN(c2ccc(Cl)cc2)CC1`
condition not met

----------
The entries below are paired with their reported Ki.
Target: D(2) dopamine receptor (Homo sapiens)
Experiment: Binding affinity of compound was tested in vitro for its ability to compete with [3H]spiperone radioligand at cloned human Dopamine receptor D2L stably expressed in CHO cells
Format: cell-based
Reply with a number, then the unit it belongs to.

Cc1nn2c(C#N)cccc2c1CN1CCN(c2ccc(Cl)cc2)CC1: 59 µM

Look up Ki for this compound: `N#Cc1cccc2c(CN3CCN(c4ccc(Cl)cc4)CC3)cnn12`
44 µM

----------
Assay system UniProt:P35462; read-out recorded as pKi.
Sequence (P35462 whole entry): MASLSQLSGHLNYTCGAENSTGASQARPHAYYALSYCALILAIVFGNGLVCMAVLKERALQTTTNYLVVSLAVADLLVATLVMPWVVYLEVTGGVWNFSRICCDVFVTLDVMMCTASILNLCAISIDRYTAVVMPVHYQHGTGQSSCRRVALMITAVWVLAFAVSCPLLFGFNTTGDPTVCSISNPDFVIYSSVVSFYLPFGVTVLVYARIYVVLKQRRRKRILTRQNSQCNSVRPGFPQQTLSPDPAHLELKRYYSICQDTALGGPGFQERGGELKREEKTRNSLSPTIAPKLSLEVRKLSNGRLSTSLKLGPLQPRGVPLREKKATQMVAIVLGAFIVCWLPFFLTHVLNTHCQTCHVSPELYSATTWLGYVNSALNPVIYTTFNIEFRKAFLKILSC
Remember the convention: pKi equals -log10 of concentration in molar.

Below are worked cases with known answers.
Cc1cccc2c(CN3CCN(c4ccc(Cl)cc4)CC3)cnn12: 5.42
Cc1cccn2ncc(CN3CCN(c4ccc(Cl)cc4)CC3)c12: 5.03
Cc1nn2c(-c3ccc(F)cc3)cccc2c1CN1CCN(c2ccc(Cl)cc2)CC1: 5.42

Provide the documented pKi with UniProt:P35462 as the system for `C[Si](C)(C)c1cccc2c(CN3CCN(c4ccc(Cl)cc4)CC3)cnn12`
5.70

Provide the documented pKi with UniProt:P35462 as the system for `OCc1ccc2c(CN3CCN(c4ccc(Cl)cc4)CC3)cnn2c1`
5.59

Provide the documented pKi with UniProt:P35462 as the system for `Fc1ccc(-c2cccc3c(CN4CCN(c5ccc(Cl)cc5)CC4)cnn23)cc1`
5.24

----------
Target: D(2) dopamine receptor (Homo sapiens, UniProt P14416)
Test: In vitro binding affinity at human cloned dopamine receptor D2 (short) stably expressed in CHO cells by [3H]spiperone displacement.
Format: cell-based
The entries below are paired with their reported pKi.
Remember the convention: pKi equals -log10 of concentration in molar.

O=Cc1cccc2c(CN3CCN(c4ccc(Cl)cc4)CC3)cnn12: 5.04

Look up pKi for this compound: `Cc1nn2c(-c3ccccc3)cccc2c1CN1CCN(c2ccc(Cl)cc2)CC1`
4.62

Look up pKi for this compound: `Fc1ccc(-c2cccc3c(CN4CCN(c5ccc(Cl)cc5)CC4)cnn23)cc1`
4.82

Look up pKi for this compound: `OCc1cccn2ncc(CN3CCN(c4ccc(Cl)cc4)CC3)c12`
4.10

Look up pKi for this compound: `C#Cc1cccc2c(CN3CCN(c4ccc(Cl)cc4)CC3)cnn12`
5.21

Look up pKi for this compound: `Clc1ccc(N2CCN(Cc3cnn4c(-c5ccccc5)cccc34)CC2)cc1`
5.55

Look up pKi for this compound: `Cc1cccc2c(CN3CCN(c4ccc(Cl)cc4)CC3)cnn12`
5.30

Look up pKi for this compound: `Cc1cccn2ncc(CN3CCN(c4ccc(Cl)cc4)CC3)c12`
4.92
